Catalogue of pIC50 readings, one per entry.
TGT: T1, PCSK9 (proprotein convertase subtilisin/kexin type 9), His-tagged, full-length (human, UniProt Q8NBP7 31-692)
T1 construct: Captured by the His tag (SPR Methods 1 and 2), amine-coupled (Method 3), or His-tagged in TR-FRET; also called His-PCSK9
ASSAY_DETAILS: TR-FRET competition; competitor EGF(A)-Fc binding to His-PCSK9
Units for pIC50: none; it is -log10 of a concentration expressed in mol/L.

{"columns": ["BINDER", "pIC50"],
 "data": [
  ["Ac-TVFTSWEEYLDWVGSGKLWN-NH2 [Compound 7]", 6.30],
  ["Ac-TVFTSWEEYLDWVGGSGKLWNLGRV-NH2 [Compound 8]", 5.99],
  ["Ac-TVFTSWEEYLDWVGSGKLWNLG-NH2 [Compound 5]", 6.14],
  ["Ac-TVFTSWEEYLDWVGSGGKLWNLGRV-NH2 [Compound 9]", 6.41],
  ["Ac-TVFTSWEEYLDWVGSGKLWNLGRV-NH2 [Compound 1]", 6.41]
]}

Supply reported pIC50 belonging to this binder: Ac-TVFTSWEEYLDWVGSGKLWNL-NH2 [Compound 6]
6.13

Specify pIC50 for Ac-TVFTSWEEYLDWVGSGKLWNLGR-NH2 [Compound 4] and stop.
6.31

Answer with the recorded pIC50 for the binder listed here: Ac-TVFTSWEEYLDWVGSGDLMPWNLVRIGLLR-NH2 (also called Pep2-8p7; Pep2-8_K9gvpep7) [Compound 20]
7.43

Cited source for all entries: patent US20200283478A1
